ASSAY_NOTES: total protein half-life in vivo (active degradation + dilution); higher = more stable protein
RECORDED_CONDITIONS: wild type E. coli NCM3722; growth: C-lim chemostat; doubling time 12 h
total protein half-life in vivo vs 8 h: at or above is TRUE, below is FALSE.

Textbook exercise: given the entry MTMNITSKQMEITPAIRQHVADRLAKLEKWQTHLINPHIILSKEPQGFVADATINTPNGVLVASGKHEDMYTAINELINKLERQLNKLQHKGEARRAATSVKDANFVEEVEEE [P0AD49] , state whether its total protein half-life in vivo is greater than or equal to 8 h. FALSE

Identify whether the reported total protein half-life in vivo of the following sequence is 8 h or greater: MSEIVIRHAETRDYEAIRQIHAQPEVYCNTLQVPHPSDHMWQERLADRPGIKQLVACIDGDVVGHLTIDVQQRPRRSHVADFGICVDSRWKNRGVASALMREMIEMCDNWLRVDRIELTVFVDNAPAIKVYKKYGFEIEGTGKKYALRNGEYVDAYYMARVK TRUE

Hi team, for MKIAILSRDGTLYSCKRLREAAIQRGHLVEILDPLSCYMNINPAASSIHYKGRKLPHFDAVIPRIGTAITFYGTAALRQFEMLGSYPLNESVAIARARDKLRSMQLLARQGIDLPVTGIAHSPDDTSDLIDMVGGAPLVVKLVEGTQGIGVVLAETRQAAESVIDAFRGLNAHILVQEYIKEAQGCDIRCLVVGDEVVAAIERRAKEGDFRSNLHRGGAASVASITPQEREIAIKAARTMALDVAGVDILRANRGPLVMEVNASPGLEGIEKTTGIDIAGKMIRWIERHATTEYCLKTGG [P0C0U4] , is the recorded total protein half-life in vivo at or above 8 h? TRUE

Entry MKDVVDKCSTKGCAIDIGTVIDNDNCTSKFSRFFATREEAESFMTKLKELAAATSSADEGASVAYKIKDLEGQVELDAAFTFSCQAEMIIFELSLRSLA : is its total protein half-life in vivo no less than 8 h? FALSE

Can MKYDTSELCDIYQEDVNVVEPLFSNFGGRASFGGQIITVKCFEDNGLLYDLLEQNGRGRVLVVDGGGSVRRALVDAELARLAVQNEWEGLVIYGAVRQVDDLEELDIGIQAMAAIPVGAAGEGIGESDVRVNFGGVTFFSGDHLYADNTGIILSEDPLDIE [P0A8R0] be said to have total protein half-life in vivo at or above 8 h? TRUE

Please check the record MATDTLTHATAHAHEHGHHDAGGTKIFGFWIYLMSDCILFSILFATYAVLVNGTAGGPTGKDIFELPFVLVETFLLLFSSITYGMAAIAMYKNNKSQVISWLALTWLFGAGFIGMEIYEFHHLIVNGMGPDRSGFLSAFFALVGTHGLHVTSGLIWMAVLMVQIARRGLTSTNRTRIMCLSLFWHFLDVVWICVFTVVYLMGAM [P0ABJ3] and state if its total protein half-life in vivo is at or above 8 h. TRUE

Decide: is the reported value of total protein half-life in vivo for MPKFRVSLFSLALMLAVPFAPQAVAKTAAATTASQPEIASGSAMIVDLNTNKVIYSNHPDLVRPIASISKLMTAMVVLDARLPLDEKLKVDISQTPEMKGVYSRVRLNSEISRKDMLLLALMSSENRAAASLAHHYPGGYKAFIKAMNAKAKSLGMNNTRFVEPTGLSVHNVSTARDLTKLLIASKQYPLIGQLSTTREDMATFSNPTYTLPFRNTNHLVYRDNWNIQLTKTGFTNAAGHCLVMRTVINNKPVALVVMDAFGKYTHFADASRLRTWIETGKVMPVPAAALSYKKQKAAQMAAAGQTAQND [P0AFI5] equal to or greater than 8 h? FALSE

For this sequence, is measured total protein half-life in vivo 8 h or higher? MNALTAVQNNAVDSGQDYSGFTLTPSAQSPRLLELTFTEQTTKQFLEQVAEWPVQALEYKSFLRFRVAKILDDLCANQLQPLLLKTLLNRAEGALLINAVGVDDVKQADEMVKLATAVAHLIGRSNFDAMSGQYYARFVVKNVDNSDSYLRQPHRVMELHNDGTYVEEITDYVLMMKIDEQNMQGGNSLLLHLDDWEHLDNYFRHPLARRPMRFAAPPSKNVSKDVFHPVFDVDQQGRPVMRYIDQFVQPKDFEEGVWLSELSDAIETSKGILSVPVPVGKFLLINNLFWLHGRDRFTPHPDLRRELMRQRGYFAYASNHYQTHQ FALSE

Does MRWQGRRESDNVEDRRNSSGGPSMGGPGFRLPSGKGGLILLIVVLVAGYYGVDLTGLMTGQPVSQQQSTRSISPNEDEAAKFTSVILATTEDTWGQQFEKMGKTYQQPKLVMYRGMTRTGCGAGQSIMGPFYCPADGTVYIDLSFYDDMKDKLGADGDFAQGYVIAHEVGHHVQKLLGIEPKVRQLQQNATQAEVNRLSVRMELQADCFAGVWGHSMQQQGVLETGDLEEALNAAQAIGDDRLQQQSQGRVVPDSFTHGTSQQRYSWFKRGFDSGDPAQCNTFGKSI have a reported total protein half-life in vivo of at least 8 h? FALSE

Would you say MPIRVPDELPAVNFLREENVFVMTTSRASGQEIRPLKVLILNLMPKKIETENQFLRLLSNSPLQVDIQLLRIDSRESRNTPAEHLNNFYCNFEDIQDQNFDGLIVTGAPLGLVEFNDVAYWPQIKQVLEWSKDHVTSTLFVCWAVQAALNILYGIPKQTRTEKLSGVYEHHILHPHALLTRGFDDSFLAPHSRYADFPAALIRDYTDLEILAETEEGDAYLFASKDKRIAFVTGHPEYDAQTLAQEFFRDVEAGLDPDVPYNYFPHNDPQNTPRASWRSHGNLLFTNWLNYYVYQITPYDLRHMNPTLD shows total protein half-life in vivo at minimum 8 h? FALSE
